# testSummary: Liver microsome metabolic stability (mouse)
# Format: in vitro ADME
# measurementConditions: mouse liver microsomes; read-out: mouse liver microsome stability t1/2
# Description: Plasma stability (mouse) and liver microsome metabolic stability (mouse) were measured by the Biopharmacy Laboratory, Shanghai Institute of Materia Medica, Chinese Academy of Sciences.
measuredProperty: half-life
Reply with the number and its unit after it.

Consider the molecule NS(=O)(=O)OCCCNS(=O)(=O)[C@@H]1O[C@H](CO)[C@@H](O)[C@H](O)[C@H]1O [Compound 1] and give its recorded half-life. 135 min
